System: Cavia porcellus
Assay: Inhibition of histamine-induced asthma-like syndrome in guinea pig assessed as time delay in appearance of anoxia at 5 mg/kg, po treated 30 mins before histamine challenge (reference value: 5.08 mins)
Assay type: functional
Time strictly less than 10 min = true (1). Otherwise false (0).

MOLECULE	GROUP_LABEL
CC(C)(C)NCC(O)c1ccc(O)c(COCCO)c1.Cl (configuration not stated)	true (1)
COCc1cc(C(O)CNC(C)(C)Cc2ccccc2)ccc1O.Cl (configuration not stated)	false (0)
CCOCCOCc1cc(C(O)CNC(C)(C)C)ccc1O.Cl (configuration not stated)	true (1)
CC(C)(C)NCC(O)c1ccc(O)c(CO)c1 (configuration not stated)	false (0)
CCOCc1cc(C(O)CNC(C)Cc2ccccc2)ccc1O.Cl (configuration not stated)	false (0)
COCc1cc(C(O)CNC(C)Cc2ccccc2)ccc1O.Cl (configuration not stated)	true (1)
COCc1cc(C(O)CNC(C)C)ccc1O.Cl (configuration not stated)	false (0)
CCOCc1cc(C(O)CNC(C)(C)Cc2ccccc2)ccc1O.Cl (configuration not stated)	false (0)
COCCOCc1cc(C(O)CNC(C)(C)C)ccc1O.Cl (configuration not stated)	false (0)
CCOCc1cc(C(O)CNC(C)C)ccc1O.Cl (configuration not stated)	true (1)
CC(C)NCC(O)c1ccc(O)c(O)c1 (configuration not stated)	false (0)
COCCOCc1cc(C(O)CNC(C)C)ccc1O.Cl (configuration not stated)	true (1)

// provenance: ChEMBL document CHEMBL3227996
